Conditions: human gut metagenome, 24 h, 2 µM; further: call rule not given here;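 further: incubated anaerobically, with remaining drug quantified by LC–MS at nine sampling points across the 24 h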
PROPERTY MEASURED: Bacterial Biotransformation

• OCCOCCN1CCN(C2=Nc3ccccc3Sc3ccccc32)CC1 [QUETIAPINE] = Compound metabolized
• CN1C(=O)CC(C)(c2ccccc2)C1=O (centres undefined) [METHSUXIMIDE] = Compound metabolized
• OC(CCN1CCCCC1)(c1ccccc1)C1CC2C=CC1C2 (centres undefined) [BIPERIDEN] = Compound NOT metabolized
• C[C@@H]1CC[C@H]2[C@@H](C)C(=O)O[C@@H]3O[C@@]4(C)CC[C@@H]1[C@]32OO4 [ARTEMISININ] = Compound metabolized
• Nc1nc2ccc(OC(F)(F)F)cc2s1 [RILUZOLE] = Compound metabolized
• CCN(CC)C(C)CN1c2ccccc2Sc2ccccc21 (centres undefined) [ETHOPROPAZINE] = Compound NOT metabolized
• CN(C)CCC=C1c2ccccc2C=Cc2ccccc21 [CYCLOBENZAPRINE] = Compound NOT metabolized
• C=CCN1CC[C@]23c4c5ccc(O)c4O[C@H]2C(=O)CC[C@@]3(O)[C@H]1C5 [NALOXONE] = Compound NOT metabolized
• C[C@@H](CO)NC(=O)[C@@H]1C=C2c3cccc4[nH]cc(c34)C[C@H]2N(C)C1.O=C(O)/C=C\C(=O)O [ERGONOVINE MALEATE] = Compound NOT metabolized

FYI, the data here is from ChEMBL document CHEMBL5724914.
